Molecular target: T1, human IL-13 (recombinant E. coli-expressed) (human, UniProt P35225 35-146)
T1 construct: also called hIL-13
T1 sequence (P35225 other isoform, or with tags, fused parts or gaps limits assumed): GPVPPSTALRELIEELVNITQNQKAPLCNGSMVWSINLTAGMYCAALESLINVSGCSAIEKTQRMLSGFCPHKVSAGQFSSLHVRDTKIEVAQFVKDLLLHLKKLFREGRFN
Experiment: Biacore T100 SPR, mAb (supernatant) captured on anti-human IgG, IL13 analyte, 1:1 fit
pKd: −log10 of the molar value.
Metric: pKd

Binder	Readout value
A1H100A AlaL1 (antibody, human IgG1, kappa, V domains shown, CDRH3 variant of A1L1) VH: QVQLVQSGAEVKKPGSSVKVSCKASGFYIKDTYMHWVRQAPGQGLEWMGTIDPANGNTKYVPKFQGRVTITADESTSTAYMELSSLRSEDTAVYYCARSIYDDYAYDDYYAMDYWGQGTLVTVSS VL: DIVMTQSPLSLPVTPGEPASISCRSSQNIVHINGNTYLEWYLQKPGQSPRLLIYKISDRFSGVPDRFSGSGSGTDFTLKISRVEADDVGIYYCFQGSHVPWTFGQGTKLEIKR	9.76
